# EXPERIMENTAL_PROTOCOL: Mycobacterium tuberculosis growth inhibition, primary screen (AID 1259343)
# CONDITIONS: at 10 µM, active compounds read high
In all, about 6,200 compounds went through this assay and about 2,900 (47%) were called active. The set was probably picked from earlier hits. The list shows a part of the results.
Label rule, in plain words: inhibition of 40% and up is Condition met, under 40% is Condition not met.

Answered examples (5):
OC(c1ccccc1)C1CCN(c2cncc(Cl)n2)CC1 (stereo unspecified) :: Condition met
CN1CCN(C(=O)c2cc(COc3cncc(Cl)c3)on2)CC1c1ccccc1 (stereo unspecified) :: Condition met
O=c1c(NCc2ccc(F)cc2)nccn1Cc1ccc(Cl)cc1 :: Condition met
Cc1cccc(C)c1-n1nnnc1SC(C)C(=O)NC(=O)NC1CCCCC1 (stereo unspecified) :: Condition met
CCN=c1scc(-c2ccc(OC(F)F)cc2)n1N=Cc1ccc2c(c1)OCO2 :: Condition not met

Consider the record given below.
Can "CN(CCCC1CCCC1)C(=O)c1cnon1" be said to have inhibition at or above 40%?
Condition not met

---

Provide the recorded inhibition for the entries that follow.
# EXPERIMENTAL_PROTOCOL: Mycobacterium tuberculosis growth inhibition, primary screen (AID 1259343)
# CONDITIONS: at 10 µM, active compounds read high
Hit rate of the full screen: of about 6,200 compounds, about 2,900 (47%) were called active. So high a share suggests a set chosen from earlier hits. This is one part of the list.
One number for each entry, in %.

Use these answered entries as a reference point.
CCCCc1ccc(-c2csc(NC(=O)C3(C)CCOCC3)n2)cc1 :: 43.9
NC(COCc1ccccc1)c1csc(Nc2ccc(C(F)(F)F)cn2)n1 (stereo not drawn) :: 66.5
COc1ccc(CC(=O)Nc2cc(-c3cccs3)nn2-c2nc(C(C)C)cc(=O)[nH]2)cc1 :: 100
N[C@H]1CN[C@H](C(=O)N2CC(N3CCCCC3)C2)C1 :: -19.7
FC(F)(F)c1ccc(Nc2cnn(Cc3ccccc3)c2)nc1 :: 58.1
Cc1cc(NC(=O)CNCCN2CCCOC2=O)ccc1Cl :: 77.5
Cc1nnsc1C(=O)Nc1ccc(C(=O)OC2CCCC2)cc1 :: -6.8
Cc1cnc(C)c(Nc2nc(C(N)Cc3ccc(Cl)cc3)cs2)n1 (stereo not drawn) :: 78.6
CCC(=O)Nc1c(-c2cc(C)cc(C)c2)nc2cc(C)ccn12 :: 5.69
COc1ccc(COc2ccc(N(C)C(N)=O)cc2)c(Cl)c1 :: 15.9

Hey, can you go through the list below and give me inhibition for every item?
1. Cc1cc(=O)[nH]c2sc(C(=O)Nc3ccc(Br)cc3)c(N)c12
2. O=C(O)CC1(CC(=O)Nc2cc(C(F)(F)F)cc(C(F)(F)F)c2)CCCCC1

1. 79.5
2. 88.4

Give measured inhibition for every item shown.
1. CN(C)C=NC1=NN(c2ccccc2)CC1
2. FCCCN1CCc2onc(-c3ccc(-c4ccccc4)cc3)c2C1
3. Cc1cc(C)n2c(NCc3ccccc3)c(-c3ccc(Cl)cc3)nc2c1
4. CN(C)c1ccc(C=NC2=NN(c3ccccc3)CC2)cc1
5. O=C1N=C2OC=C(C(=O)Nc3ccc(-n4cccc4)cc3)N2CCN1
6. c1ccc(C2=NN(c3ccccc3)CC2)cc1
7. CC(C)c1cc(=O)[nH]c(-n2nc(-c3cccs3)cc2NC(=O)Cc2ccc(F)cc2)n1
8. FC(F)(F)c1ccc(Sc2ncccn2)nc1

-0.55
38.4
51.4
90.3
89.4
-38.3
6.65
-12

Consider the following items and state reported inhibition for each.
1. Cc1sc(NC(=O)CC2(CC(=O)O)CCCCC2)c(C#N)c1C
2. CC(C)c1cc(=O)[nH]c(-n2nc(-c3cccs3)cc2NC(=O)CCc2ccccc2)n1
3. CC(C)Cc1ccc(-c2csc(NC(=O)C3COCCO3)n2)cc1 (stereo not drawn)

1: -8.62; 2: 19.2; 3: 90.5
